System: JAK2 (Homo sapiens (Human), UniProt O60674) | Read-out: IC50
Sequence (O60674 whole entry, species assumed): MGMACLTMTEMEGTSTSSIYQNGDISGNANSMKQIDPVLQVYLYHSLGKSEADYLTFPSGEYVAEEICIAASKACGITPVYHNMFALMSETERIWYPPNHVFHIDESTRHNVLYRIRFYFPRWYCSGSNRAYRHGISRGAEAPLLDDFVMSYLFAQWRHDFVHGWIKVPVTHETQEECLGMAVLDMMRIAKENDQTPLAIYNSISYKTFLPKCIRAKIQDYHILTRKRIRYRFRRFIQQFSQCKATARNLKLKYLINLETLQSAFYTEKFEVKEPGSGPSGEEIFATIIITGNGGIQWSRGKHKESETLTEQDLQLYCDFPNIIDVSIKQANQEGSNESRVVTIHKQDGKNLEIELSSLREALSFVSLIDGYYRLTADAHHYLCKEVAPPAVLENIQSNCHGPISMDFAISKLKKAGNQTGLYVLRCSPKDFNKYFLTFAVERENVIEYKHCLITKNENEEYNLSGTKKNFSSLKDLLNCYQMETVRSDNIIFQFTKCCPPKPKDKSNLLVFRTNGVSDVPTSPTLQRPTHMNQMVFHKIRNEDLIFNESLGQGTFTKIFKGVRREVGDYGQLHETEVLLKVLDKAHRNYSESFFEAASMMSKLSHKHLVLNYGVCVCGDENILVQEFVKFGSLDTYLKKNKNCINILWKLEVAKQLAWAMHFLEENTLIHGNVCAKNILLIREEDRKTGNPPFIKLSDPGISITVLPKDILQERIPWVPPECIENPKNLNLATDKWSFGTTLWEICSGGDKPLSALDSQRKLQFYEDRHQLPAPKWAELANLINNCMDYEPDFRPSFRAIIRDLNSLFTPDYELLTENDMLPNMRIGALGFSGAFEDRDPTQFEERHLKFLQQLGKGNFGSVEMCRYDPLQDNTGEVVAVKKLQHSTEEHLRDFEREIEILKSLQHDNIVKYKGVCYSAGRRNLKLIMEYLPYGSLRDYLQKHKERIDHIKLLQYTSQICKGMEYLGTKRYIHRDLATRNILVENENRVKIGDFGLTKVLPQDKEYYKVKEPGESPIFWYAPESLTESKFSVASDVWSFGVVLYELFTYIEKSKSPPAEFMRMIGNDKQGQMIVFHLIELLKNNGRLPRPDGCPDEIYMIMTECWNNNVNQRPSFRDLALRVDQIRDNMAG

> print(dat)
                               smiles.entry  quantity.measured          result
1  CC[C@H](Cn1ccc2cnc(Nc3cnn(CC(=O)O[C@@H]4C[C@@H](C(=O)O)N(C)C4)c3)nc21)C(C)C               IC50  100 to 1000 nM

Consider now this further compound.
Q: For `CC[C@H](Cn1ccc2cnc(Nc3cnn(CC(=O)O[C@@H]4C[C@@H](C(=O)OC(C)C)N(C)C4)c3)nc21)C(C)C` , what is its reported IC50?
Result: 100 to 1000 nM
